Catalogue of molecules with associated Emax
# system: 5HT2C receptors (Homo sapiens)
# Sequence (P28335 33-458): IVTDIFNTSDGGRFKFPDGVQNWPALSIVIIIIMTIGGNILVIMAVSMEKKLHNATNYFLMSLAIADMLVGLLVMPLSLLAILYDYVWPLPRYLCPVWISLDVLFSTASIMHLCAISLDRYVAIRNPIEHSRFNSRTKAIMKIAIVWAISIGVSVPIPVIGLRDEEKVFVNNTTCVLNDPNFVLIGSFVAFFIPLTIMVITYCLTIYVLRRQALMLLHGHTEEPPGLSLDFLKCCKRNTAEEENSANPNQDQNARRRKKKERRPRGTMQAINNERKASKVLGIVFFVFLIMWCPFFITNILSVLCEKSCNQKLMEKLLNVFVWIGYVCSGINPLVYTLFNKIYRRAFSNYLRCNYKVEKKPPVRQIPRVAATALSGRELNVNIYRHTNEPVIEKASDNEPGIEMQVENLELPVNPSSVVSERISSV
# experiment description: Human 5-HT2C functional high throughput screening assay in CHO-K1 cells (calcium flux)
# Type: cell-based
# Parameters: expressed in transfected cells; host or cells: CHO-K1 cells
# study conditions: CHO-K1; 5-HT2C; maximum functional response as percentage relative to the effect of serotonin; read-out: Emax

molecule | system | Emax
CC(O)c1cc(-c2ccc3c(c2)C(=O)NC[C@H]2CN(C)C[C@H]32)ccc1F (mixture of isomers) [Example 307] | 5HT2C receptors (Homo sapiens) | 100%
CS(=O)(=O)c1cccc(-c2cccc3c2OCC[C@H]2CNC[C@H]32)c1 (relative stereo) [Example 350] | 5HT2C receptors (Homo sapiens) | 75%
O=C1NC[C@@H]2CN(Cc3ccccc3)C[C@H]2c2ccc(O)cc21 (relative stereo) [Example 117] | 5HT2C receptors (Homo sapiens) | > 120%
CN1C[C@H]2CNC(=O)c3cc(OCc4ccccc4F)ccc3[C@@H]2C1 (relative stereo) [Example 164] | 5HT2C receptors (Homo sapiens) | 50%
CN1C[C@H]2CNC(=O)c3cc(-c4cccc(C#N)c4)ccc3[C@@H]2C1 (relative stereo) [Example 240] | 5HT2C receptors (Homo sapiens) | > 120%
C[C@H](Cc1ccccc1)Oc1ccc2c(c1)C(=O)NC[C@H]1CNC[C@H]21 [Example 181] | 5HT2C receptors (Homo sapiens) | > 120%
CCc1ccc(-c2ccc3c(c2)C(=O)NC[C@@H]2CN(C)C[C@@H]32)cc1 (relative stereo) [Example 139] | 5HT2C receptors (Homo sapiens) | > 120%
COc1cccc(S(=O)(=O)N2Cc3cccnc3[C@@H]3CNC[C@H]3C2)c1 (relative stereo) [Example 336] | 5HT2C receptors (Homo sapiens) | 90%
CN1C[C@H]2CNC(=O)c3cc(OCc4cccc(F)c4)ccc3[C@@H]2C1 (relative stereo) [Example 217] | 5HT2C receptors (Homo sapiens) | 120%
O=S(=O)(c1ccc(OC(F)F)cc1)N1Cc2cccnc2[C@@H]2CNC[C@H]2C1 (relative stereo) [Example 335] | 5HT2C receptors (Homo sapiens) | 85%
CN1C[C@H]2CNC(=O)c3cc(N4CCCCC4)ccc3[C@@H]2C1 (relative stereo) [Example 298] | 5HT2C receptors (Homo sapiens) | 80%
CN1C[C@H]2CNC(=O)c3cc(C(=O)N4CCCCC4)ccc3[C@@H]2C1 (relative stereo) [Example 122] | 5HT2C receptors (Homo sapiens) | 100%
Cc1cc(C)c(S(=O)(=O)N2Cc3cccnc3[C@@H]3CNC[C@H]3C2)c(C)c1 (relative stereo) [Example 363] | 5HT2C receptors (Homo sapiens) | 65%
COc1ccc(-c2ccc3c(c2)C(=O)NC[C@@H]2CN(C)C[C@@H]32)c(OC)c1 (relative stereo) [Example 303] | 5HT2C receptors (Homo sapiens) | 100%
COc1ccc(-c2ccc3c(c2)C(=O)NC[C@@H]2CN(C)C[C@@H]32)cc1 [Example 159] | 5HT2C receptors (Homo sapiens) | 110%
